Reference source: patent US20230234938A1

Quick reference for melting point among some compounds
readout kind: melting point

compound="CC1(O)C(=O)N(c2cc(Cc3n[nH]c(=O)c4ccccc34)ccn2)c2ccccc21 (single isomer, unassigned; (+)) [Example 20]" measurement="205 to 208 °C"
compound="CC1(O)C(=O)N(c2cc(Cc3n[nH]c(=O)c4ccccc34)ccn2)c2ccccc21 (stereo not shown) [Example 18]" measurement="203 to 205 °C"
compound="CC1(O)C(=O)N(c2cncc(Cc3n[nH]c(=O)c4ccc(F)cc34)c2)c2ccccc21 (stereo not shown)" measurement="132 to 135 °C"
compound=CC1(C)C(=O)N(c2cncc(Cc3n[nH]c(=O)c4ccccc34)c2)c2ccccc21 measurement="221 to 224 °C"
compound="CC1(O)C(=O)N(c2cc(Cc3n[nH]c(=O)c4ccccc34)ccc2F)c2ccccc21 (stereo not shown)" measurement="131 to 134 °C"
compound="CC1(O)C(=O)N(c2cncc(Cc3n[nH]c(=O)c4cc(F)ccc34)c2)c2ccc(F)cc21 (single isomer, unassigned; (+)) [Example 11]" measurement="148 to 151 °C"
compound="CC1(O)C(=O)N(c2cncc(Cc3n[nH]c(=O)c4cc(F)ccc34)c2)c2cc(F)ccc21 (stereo not shown)" measurement="219 to 221 °C"

----------
Quick reference for melting point among some compounds
readout kind: melting point

compound="CCC1(O)C(=O)N(c2cncc(Cc3n[nH]c(=O)c4ccccc34)c2)c2ccccc21 (stereo not drawn)" readout_kind="melting point" measurement="117 to 120 °C"
compound="O=C1N(c2cncc(Cc3n[nH]c(=O)c4ccccc34)c2)c2ccccc2C1(O)C(F)(F)F (stereo not drawn) [Example 25]" readout_kind="melting point" measurement="258 to 260 °C"
compound="CC1(O)C(=O)N(c2cccc(Cc3n[nH]c(=O)c4ccccc34)c2)c2ccccc21 (stereo not drawn)" readout_kind="melting point" measurement="240 to 243 °C"
compound=C[C@@]1(O)C(=O)N(c2cncc(Cc3n[nH]c(=O)c4ccccc34)c2)c2ccccc21 readout_kind="melting point" measurement="94 to 97 °C"
compound="CC1(O)C(=O)N(c2cc(Cc3n[nH]c(=O)c4ccccc34)ccn2)c2ccccc21 (single isomer, unassigned; (-)) [Example 19]" readout_kind="melting point" measurement="207 to 210 °C"
compound="CC1(O)C(=O)N(c2cncc(Cc3n[nH]c(=O)c4ccccc34)c2)c2cc(F)ccc21 (stereo not drawn)" readout_kind="melting point" measurement="125 to 128 °C"
compound="CC1(O)C(=O)N(c2cncc(Cc3n[nH]c(=O)c4ccccc34)c2)c2ccc(F)cc21 (single isomer, unassigned; (-)) [Example 15]" readout_kind="melting point" measurement="197 to 200 °C"
compound="CC1(O)C(=O)N(c2cncc(Cc3n[nH]c(=O)c4ccccc34)c2)c2ccccc21 (stereo not drawn)" readout_kind="melting point" measurement="110 to 113 °C"
compound="CC1(O)C(=O)N(c2cncc(Cc3n[nH]c(=O)c4cc(F)ccc34)c2)c2ccccc21 (single isomer, unassigned; (+)) [Example 7]" readout_kind="melting point" measurement="148 to 151 °C"
compound=CC1(C)C(=O)N(c2cc(Cc3n[nH]c(=O)c4ccccc34)ccc2F)c2cccnc21 readout_kind="melting point" measurement="114 to 117 °C"
compound="CC(=O)OC1(C)C(=O)N(c2cncc(Cc3n[nH]c(=O)c4ccccc34)c2)c2ccccc21 (stereo not drawn)" readout_kind="melting point" measurement="237 to 239 °C"
compound=CC1(C)C(=O)N(c2cc(Cc3n[nH]c(=O)c4ccccc34)ccc2F)c2ccccc21 readout_kind="melting point" measurement="129 to 132 °C"
compound="CC1(O)C(=O)N(c2cncc(Cc3n[nH]c(=O)c4cc(F)ccc34)c2)c2ccc(F)cc21 (single isomer, unassigned; (-)) [Example 12]" readout_kind="melting point" measurement="154 to 157 °C"
compound="CC1(O)C(=O)N(c2cncc(Cc3n[nH]c(=O)c4cc(F)ccc34)c2)c2ccc(F)cc21 (stereo not drawn) [Example 10]" readout_kind="melting point" measurement="157 to 160 °C"
compound="CC1(O)C(=O)N(c2cc(Cc3n[nH]c(=O)c4cc(F)ccc34)ccn2)c2ccccc21 (stereo not drawn) [Example 21]" readout_kind="melting point" measurement="187 to 189 °C"

----------
Quick reference for melting point among some compounds
readout kind: melting point

compound="CC1(O)C(=O)N(c2cc(Cc3n[nH]c(=O)c4cc(F)ccc34)ccn2)c2ccc(F)cc21 (stereo not drawn)" measurement="225 to 228 °C"
compound="CC1(O)C(=O)N(c2cncc(Cc3n[nH]c(=O)c4cc(F)ccc34)c2)c2ccccc21 (single isomer, unassigned; (-)) [Example 8]" measurement="138 to 141 °C"
compound="O=C1N(c2cncc(Cc3n[nH]c(=O)c4ccccc34)c2)c2ccccc2C1(O)C(F)(F)F (single isomer, unassigned; (+)) [Example 26]" measurement="170 to 174 °C"
compound="CC1(O)C(=O)N(c2cncc(Cc3n[nH]c(=O)c4ccccc34)c2)c2ccc(F)cc21 (single isomer, unassigned; (+)) [Example 14]" measurement="198 to 201 °C"
compound="CC1(O)C(=O)N(c2cc(Cc3n[nH]c(=O)c4cc(F)ccc34)ccn2)c2ccccc21 (single isomer, unassigned; (-)) [Example 22]" measurement="165 to 168 °C"
compound=CC1(C)C(=O)N(c2cncc(Cc3n[nH]c(=O)c4ccccc34)c2)c2cccnc21 measurement="242 to 245 °C"

----------
Molecular target: PARP1 (Homo sapiens, UniProt P09874)
Sequence (P09874 whole entry, species assumed): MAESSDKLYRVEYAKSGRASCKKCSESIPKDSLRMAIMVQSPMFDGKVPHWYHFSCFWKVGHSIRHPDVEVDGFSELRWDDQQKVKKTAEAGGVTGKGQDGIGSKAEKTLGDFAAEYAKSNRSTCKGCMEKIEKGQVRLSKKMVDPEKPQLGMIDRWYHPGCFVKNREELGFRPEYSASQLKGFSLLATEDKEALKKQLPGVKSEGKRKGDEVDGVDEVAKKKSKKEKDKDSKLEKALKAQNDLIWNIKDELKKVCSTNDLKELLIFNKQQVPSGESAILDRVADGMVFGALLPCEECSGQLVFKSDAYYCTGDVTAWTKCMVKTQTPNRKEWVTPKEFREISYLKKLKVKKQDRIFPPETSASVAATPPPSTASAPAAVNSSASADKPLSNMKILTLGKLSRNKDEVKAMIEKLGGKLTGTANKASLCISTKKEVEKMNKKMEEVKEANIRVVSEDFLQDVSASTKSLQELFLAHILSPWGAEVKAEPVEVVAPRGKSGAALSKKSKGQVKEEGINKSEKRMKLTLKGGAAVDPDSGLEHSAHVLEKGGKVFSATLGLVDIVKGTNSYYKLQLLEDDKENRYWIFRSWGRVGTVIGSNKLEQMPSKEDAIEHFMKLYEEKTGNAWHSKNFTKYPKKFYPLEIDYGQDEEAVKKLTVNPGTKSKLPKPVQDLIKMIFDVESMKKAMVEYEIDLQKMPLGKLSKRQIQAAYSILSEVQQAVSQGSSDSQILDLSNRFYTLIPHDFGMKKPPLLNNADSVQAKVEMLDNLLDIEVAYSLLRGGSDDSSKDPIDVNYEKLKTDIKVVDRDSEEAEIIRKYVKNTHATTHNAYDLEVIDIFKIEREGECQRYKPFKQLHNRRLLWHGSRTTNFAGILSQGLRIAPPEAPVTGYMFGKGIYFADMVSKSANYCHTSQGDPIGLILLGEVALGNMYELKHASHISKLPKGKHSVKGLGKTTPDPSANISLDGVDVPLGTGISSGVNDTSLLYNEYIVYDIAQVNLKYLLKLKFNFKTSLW
Test: PARP enzyme assay (PARP1, chemiluminescent histone ribosylation)
Settings: read-out: IC50 (nM)-PARP1
readout kind: IC50

molecule="CC1(O)C(=O)N(c2cc(Cc3n[nH]c(=O)c4ccccc34)ccn2)c2ccccc21 (single isomer, unassigned; (+))" experimental_target="PARP1 (Homo sapiens, UniProt P09874)" readout_kind=IC50 measurement="< 10 nM"
molecule="CC1(O)C(=O)N(c2cncc(Cc3n[nH]c(=O)c4cc(F)ccc34)c2)c2ccc(F)cc21 (single isomer, unassigned; (-))" experimental_target="PARP1 (Homo sapiens, UniProt P09874)" readout_kind=IC50 measurement="< 10 nM"
molecule="CC1(O)C(=O)N(c2cncc(Cc3n[nH]c(=O)c4ccccc34)c2)c2ccc(F)cc21 (single isomer, unassigned; (-))" experimental_target="PARP1 (Homo sapiens, UniProt P09874)" readout_kind=IC50 measurement="< 10 nM"

----------
Biological target: PARP1 (Homo sapiens)
Experiment: PARP enzyme assay (PARP1, chemiluminescent histone ribosylation)
Conditions: read-out: % inhibition 10 nM
Quick reference for inhibition at 0.01 µM among some compounds
readout kind: inhibition at 0.01 µM

compound="CC1(O)C(=O)N(c2cncc(Cc3n[nH]c(=O)c4ccccc34)c2)c2ccccc21 (centres unmarked)" measurement="75 to 100%"
compound="CC1(O)C(=O)N(c2cccc(Cc3n[nH]c(=O)c4ccccc34)c2)c2cnccc21 (centres unmarked)" measurement="25 to 50%"
compound="CC1(O)C(=O)N(c2cncc(Cc3n[nH]c(=O)c4cc(F)ccc34)c2)c2ccc(F)cc21 (centres unmarked)" measurement="75 to 100%"
compound=CC1(C)C(=O)N(c2cc(Cc3n[nH]c(=O)c4ccccc34)ccc2F)c2cccnc21 measurement="25 to 50%"
compound=CC1(C)C(=O)N(c2cc(Cc3n[nH]c(=O)c4ccccc34)ccc2F)c2ccccc21 measurement="75 to 100%"

----------
Tested on: PAR in UWB 1.289 cells
Experiment: PAR inhibition in UWB 1.289 cells (western blot)
Format: cell-based, human
Settings: UWB 1.289 cells, 10 nM, 24 hours, western blot relative to DMSO; 0.01 µM
readout kind: PAR % inhibition in UWB 1.289 @ 10 nM

compound="CC1(O)C(=O)N(c2cncc(Cc3n[nH]c(=O)c4ccccc34)c2)c2ccc(F)cc21 (single isomer, unassigned; (-)) [Example 15]" readout_kind="PAR % inhibition in UWB 1.289 @ 10 nM" measurement="D (D represents ≤25%)"
compound="CC1(O)C(=O)N(c2cc(Cc3n[nH]c(=O)c4cc(F)ccc34)ccn2)c2ccccc21 (single isomer, unassigned; (+))" readout_kind="PAR % inhibition in UWB 1.289 @ 10 nM" measurement="D (D represents ≤25%)"
compound="CC1(O)C(=O)N(c2cncc(Cc3n[nH]c(=O)c4cc(F)ccc34)c2)c2ccc(F)cc21 (single isomer, unassigned; (-)) [Example 12]" readout_kind="PAR % inhibition in UWB 1.289 @ 10 nM" measurement="D (D represents ≤25%)"

----------
readout kind: melting point

compound="COC1(C)C(=O)N(c2cncc(Cc3n[nH]c(=O)c4ccccc34)c2)c2ccccc21 (stereo not drawn) [Example 30]" measurement="207 to 210 °C"
compound="CC1(O)C(=O)N(c2cncc(Cc3n[nH]c(=O)c4ccccc34)c2)c2ccc(F)cc21 (stereo not drawn) [Example 13]" measurement="116 to 120 °C"
compound="O=C1Cc2ccccc2N1c1cc(Cc2n[nH]c(=O)c3ccccc23)ccc1F [Example 33]" measurement="232 to 235 °C"
compound="CC1(O)C(=O)N(c2cccc(Cc3n[nH]c(=O)c4ccccc34)c2)c2cnccc21 (stereo not drawn) [Example 31]" measurement="133 to 136 °C"
compound="CC1(O)C(=O)N(c2cc(Cc3n[nH]c(=O)c4cc(F)ccc34)ccc2F)c2ccccc21 (stereo not drawn) [Example 29]" measurement="207 to 210 °C"
compound="CC1(O)C(=O)N(c2cncc(Cc3n[nH]c(=O)c4cc(F)ccc34)c2)c2ccccc21 (stereo not drawn) [Example 6]" measurement="133 to 136 °C"
